study.system: canine TRPM8 (Canis lupus familiaris)
Construct: expressed in transfected cells
Sequence (Q1A7N1 1-1104): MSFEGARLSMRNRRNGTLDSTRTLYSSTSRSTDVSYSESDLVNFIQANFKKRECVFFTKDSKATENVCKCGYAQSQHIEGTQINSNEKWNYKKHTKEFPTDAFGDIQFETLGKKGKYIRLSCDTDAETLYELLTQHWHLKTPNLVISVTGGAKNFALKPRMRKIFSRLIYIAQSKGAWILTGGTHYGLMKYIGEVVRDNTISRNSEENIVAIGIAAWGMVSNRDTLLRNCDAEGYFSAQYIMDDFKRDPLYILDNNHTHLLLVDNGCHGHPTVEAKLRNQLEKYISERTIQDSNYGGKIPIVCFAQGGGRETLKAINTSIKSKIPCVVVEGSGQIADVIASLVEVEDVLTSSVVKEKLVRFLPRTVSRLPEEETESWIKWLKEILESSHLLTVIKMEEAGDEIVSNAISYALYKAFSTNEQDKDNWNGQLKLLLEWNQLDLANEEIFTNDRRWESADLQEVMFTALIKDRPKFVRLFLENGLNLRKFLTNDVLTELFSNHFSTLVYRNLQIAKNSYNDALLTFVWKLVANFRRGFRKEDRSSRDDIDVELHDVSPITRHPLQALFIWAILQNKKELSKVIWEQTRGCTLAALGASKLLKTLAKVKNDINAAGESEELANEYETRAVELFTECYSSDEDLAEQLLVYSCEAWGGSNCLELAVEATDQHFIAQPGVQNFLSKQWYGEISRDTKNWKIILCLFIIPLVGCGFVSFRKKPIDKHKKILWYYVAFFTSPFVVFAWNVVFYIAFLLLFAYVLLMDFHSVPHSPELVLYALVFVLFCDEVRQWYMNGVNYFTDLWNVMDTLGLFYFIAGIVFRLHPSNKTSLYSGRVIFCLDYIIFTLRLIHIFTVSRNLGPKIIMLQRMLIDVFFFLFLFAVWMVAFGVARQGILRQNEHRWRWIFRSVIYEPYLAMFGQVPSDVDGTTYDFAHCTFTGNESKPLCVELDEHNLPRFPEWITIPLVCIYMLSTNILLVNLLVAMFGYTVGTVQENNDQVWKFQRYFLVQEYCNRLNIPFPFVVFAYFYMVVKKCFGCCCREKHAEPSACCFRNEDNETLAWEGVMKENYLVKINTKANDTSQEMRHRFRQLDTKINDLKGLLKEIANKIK
experimental.protocol: In Vitro Canine TRPM8 Functional Assay (Ca2+ fluorescence, icilin activation)
Assay type: cell-based
experimental.context: HEK293, 0.2 μM compound; canine TRPM8 HEK293; icilin
reported.property: inhibition at 0.2 µM (%)

COC(=O)c1ccc(C2CCCN2C(=O)C(Nc2ccccc2F)c2ccc(C(F)(F)F)cc2)cc1 (stereo not shown) : 96

[A] O=C(C(Nc1ccccc1F)c1ccc(N2CCOCC2)cc1)N1CCCC1c1ccccc1F (stereo not shown)
[B] O=C(C(Nc1ccccc1F)c1ccc(C2=CCNCC2)cc1)N1CCCC1c1ccccc1F (stereo not shown)
(Q) Field: lower inhibition at 0.2 µM | Options: A / B Provide the label of your selected option as the answer.
(A) B
